Molecular target: T1, GABARAP (γ-aminobutyric acid type A receptor-associated protein) (human, UniProt O95166 1-117)
T1 construct: GABARAP, human, full-length (unprocessed) version; For the NMR titrations the same construct was made 15N-labelled in M9 minimal medium; also called 15N-GABARAP; free GABARAP; source: E. coli BL21(DE3), pGEX-4-T2, purified (Glutathione Sepharose 4B, thrombin cleavage, SEC)
T1 sequence (O95166 whole entry): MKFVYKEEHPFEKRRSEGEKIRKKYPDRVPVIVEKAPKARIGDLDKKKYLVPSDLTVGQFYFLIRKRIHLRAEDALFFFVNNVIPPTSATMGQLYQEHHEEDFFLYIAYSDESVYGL
Experiment: BLI; Octet Red 96; N-terminally biotinylated peptides immobilised on High Precision Streptavidin (SAX) biosensors; purified hATG8 proteins as analyte in increasing concentrations; steady-state evaluation, one-site binding model; individual measurements unless stated otherwise
Settings: both partners purified
Where no end group is shown, it is not given here. The star is where a group is joined. Biotin = O=C1N[C@H]2[C@H](CS[C@H]2CCCCC(=O)*)N1
Quantity: Kd (µM)
// return numeric value only (unit: µM, not printed)

Tell me the measured Kd of Biotin-ISQKSDEEDFVKVED (peptide, UniProt Q15154 1954-1968, looked up, Pericentriolar material 1 protein (PCM1), LIR motif, residues 1954-1968; source: synthetic peptide, bought: CASLO (≥95% purity)) [PCM1 LIR peptide (pericentriolar material 1 protein residues 1954-1968), N-terminally biotinylated] , please.
4.2
